- System: MDA-MB-468 breast
- assay_details: NCI tumour cell line growth inhibition, 48 h

molecule: Cc1cc(Nc2cccc(F)c2)nc(NCc2ccccc2)n1
GI50: 2170 nM
--
molecule: C1CN1c1nc(N2CC2)nc(N2CC2)n1
GI50: 4830 nM
--
molecule: COc1ccc(/C=C/C(=O)c2cccc(B(O)O)c2)cc1O
GI50: 2860 nM
--
molecule: O[N+]1=CC=CCC1=S.On1ccccc1=S.[Zn]
GI50: 584 nM
--
molecule: O=C1OCC2=C1C(c1cccc(Cl)c1)c1cc3c(cc1N2CCO)OCO3 (stereo unspecified)
GI50: 246 nM
--
molecule: COC(=O)[C@@H](C[C@H](Cc1ccccc1)NC(=O)c1csc([C@@H](C[C@H](C(C)C)N(C)C(=O)[C@@H](NC(=O)[C@H]2CCCCN2C)C(C)C)OC(C)=O)n1)NC(=O)OCc1ccccc1
GI50: < 0.833 nM

====

- Test system: MDA-MB-468 breast
- assay_details: NCI tumour cell line growth inhibition, 48 h
Listed here are compounds together with their documented log10 TGI.
observation_type: log10 TGI (log10 of the value in µM)

compound: Clc1ccc(/C=C2\CCCC3C2=Nc2ccccc2NC3c2ccc(Cl)cc2)cc1 (stereo not drawn)
system_name: MDA-MB-468 breast
log10 TGI: 0.66
--
compound: O=C(N/N=C\c1c(O)ccc2ccccc12)C1CC1
system_name: MDA-MB-468 breast
log10 TGI: 0.94
--
compound: COc1ccc(/C=C/C(=O)c2cccc(B(O)O)c2)cc1O
system_name: MDA-MB-468 breast
log10 TGI: 1.32
--
compound: COC(=O)C(N)CSC(c1ccccc1)(c1ccccc1)c1ccccc1 (stereo not drawn)
system_name: MDA-MB-468 breast
log10 TGI: 0.44
--
compound: C1CN1c1nc(N2CC2)nc(N2CC2)n1
system_name: MDA-MB-468 breast
log10 TGI: 1.28
--
compound: CN1CCN(c2ccc3nc(-c4c5cccccc-5[nH]c4=O)[nH]c3c2)CC1
system_name: MDA-MB-468 breast
log10 TGI: 1.53
--
compound: FC(F)(F)c1cccc(Nc2nc3ccccc3nc2Nc2cccc(C(F)(F)F)c2)c1
system_name: MDA-MB-468 breast
log10 TGI: 0.55
--
compound: CCN(CC)c1ccc(/C=C2\SC(=O)C(Nc3nnc(-c4cccnc4SCc4ccccc4)o3)C2=O)cc1 (stereo not drawn)
system_name: MDA-MB-468 breast
log10 TGI: 1.07
--
compound: CC(C)[C@]12O[C@H]1[C@@H]1O[C@]13[C@]1(O[C@H]1C[C@H]1C4=C(CC[C@@]13C)C(=O)OC4)[C@@H]2OC(=O)CN(C)C
system_name: MDA-MB-468 breast
log10 TGI: -1.28
--
compound: Cc1nc2cc(-n3c(-c4ccc(F)cc4)nc4ccccc4c3=O)ccc2n1Cc1ccccc1
system_name: MDA-MB-468 breast
log10 TGI: 0.69
--
compound: CC(=O)c1cc2c(c(O)c1C)C(=O)C(=O)c1c(O)cccc1-2
system_name: MDA-MB-468 breast
log10 TGI: -0.31
--
compound: Cc1c(C(N)=O)sc2c1c(=O)n(Cc1ccccc1)c1nnc(SCC(=O)Nc3ccc(Cl)cc3)n21
system_name: MDA-MB-468 breast
log10 TGI: 0.84
--
compound: CNC(=O)c1cccc(NC(=O)c2ccc3c(c2)nnn3/C(C#N)=C/c2ccccn2)c1
system_name: MDA-MB-468 breast
log10 TGI: 0.54
